molecular target: EGFR intracellular kinase domain (Homo sapiens); test: SPR binding (Biacore 8K); details: without ATP
Sequence (P00533 712-979 limits assumed): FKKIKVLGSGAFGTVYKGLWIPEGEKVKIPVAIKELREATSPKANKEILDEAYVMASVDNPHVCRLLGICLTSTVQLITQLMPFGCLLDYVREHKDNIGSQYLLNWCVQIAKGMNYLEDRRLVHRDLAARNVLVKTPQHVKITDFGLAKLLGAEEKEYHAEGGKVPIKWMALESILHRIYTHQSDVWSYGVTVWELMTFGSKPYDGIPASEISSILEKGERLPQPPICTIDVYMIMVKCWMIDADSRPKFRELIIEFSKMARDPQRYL
resultType: Kd (µM)
Numeric answer only, unit µM assumed.

Query string: Fill blank: measured Kd of the molecule `CC[C@@H](C)[C@H]1C=C[C@H]2[C@H](OC(=O)/C=C(\C)CC(=O)OC)[C@H](O)C[C@@H](C)[C@@H]2[C@@]1(C)C(=O)CCO` is ____.
Result string: 7.02

Query string: Also check `COC(=O)C/C(C)=C/C(=O)O[C@@H]1C[C@@H](C)[C@H]2[C@@H](C=C[C@H](CC(C)C)[C@]2(C)C(=O)/C=C\O)[C@@H]1O`
Result string: 5.57

Query string: Now the molecule `CC[C@@H](C)[C@H]1C=C[C@H]2[C@H](OC(=O)C/C(C)=C\C(=O)O)[C@H](O)C[C@@H](C)[C@@H]2[C@@]1(C)C(=O)CCO`
Result string: 6.56

Query string: Proceed to `CC[C@@H](C)[C@H]1C=C[C@H]2[C@H](O)[C@H](OC(=O)/C=C(\C)CC(=O)O)C[C@@H](C)[C@@H]2[C@@]1(C)C(=O)CCO`
Result string: 6.34

Hello, the source for this data is paper PMC11094307, in case you need it.
